Data credit: patent US20180171001A1

Biological target: Env of HIV-1 strain 3016.v5.c45 (HIV-1)
Assay: cell-based or functional assay
Each item that follows carries a reported neutralization IC50.
Value Kind: neutralization IC50 (µg/mL)

Binder	Value Kind	Result Unit	Bound Type	Result Value
γ4κ3 (antibody, V domains shown) VH: QIHLVQSGTEVKKPGSSVTVSCKAYGVNTFGLYAVNWVRQAPGQSLEYIGQIWRWKSSASHHFRGRVIISAVDLTGSSPPISPLEIKNLTSDDTAVYFCTTTSTSDRWSGLHHDGVMAFSSWGQGTLISVSA VL: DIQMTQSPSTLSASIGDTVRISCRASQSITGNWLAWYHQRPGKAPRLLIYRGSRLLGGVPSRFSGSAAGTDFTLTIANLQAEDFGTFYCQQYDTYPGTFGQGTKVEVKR	neutralization IC50	µg/mL	>	15
γ52κ3 (antibody, V domains shown) VH: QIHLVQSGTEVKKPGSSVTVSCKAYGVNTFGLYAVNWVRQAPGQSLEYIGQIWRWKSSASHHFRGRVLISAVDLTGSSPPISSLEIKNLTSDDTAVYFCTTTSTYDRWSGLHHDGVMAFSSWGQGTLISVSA VL: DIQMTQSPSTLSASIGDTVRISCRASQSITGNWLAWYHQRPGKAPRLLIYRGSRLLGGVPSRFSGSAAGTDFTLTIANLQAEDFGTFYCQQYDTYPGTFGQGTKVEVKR	neutralization IC50	µg/mL	=	3.05
8ANC3430 (antibody, V domains shown) VH: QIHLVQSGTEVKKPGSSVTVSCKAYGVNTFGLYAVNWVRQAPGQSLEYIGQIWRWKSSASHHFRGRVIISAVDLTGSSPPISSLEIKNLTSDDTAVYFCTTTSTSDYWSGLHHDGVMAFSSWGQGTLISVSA VL: DIQMTQSPSTLSASVGDTVRISCRASQSITGGWLAWYHQRPGKAPRLLIYRGSRLLGGVPSRFSGSAAGTDFTLTIANLQAEDFGTFYCQQYDTYPGTFGQGTKVEVKR	neutralization IC50	µg/mL	=	0.271
